target: human SSTR2 (Homo sapiens, UniProt P30874)
Sequence (P30874 whole entry): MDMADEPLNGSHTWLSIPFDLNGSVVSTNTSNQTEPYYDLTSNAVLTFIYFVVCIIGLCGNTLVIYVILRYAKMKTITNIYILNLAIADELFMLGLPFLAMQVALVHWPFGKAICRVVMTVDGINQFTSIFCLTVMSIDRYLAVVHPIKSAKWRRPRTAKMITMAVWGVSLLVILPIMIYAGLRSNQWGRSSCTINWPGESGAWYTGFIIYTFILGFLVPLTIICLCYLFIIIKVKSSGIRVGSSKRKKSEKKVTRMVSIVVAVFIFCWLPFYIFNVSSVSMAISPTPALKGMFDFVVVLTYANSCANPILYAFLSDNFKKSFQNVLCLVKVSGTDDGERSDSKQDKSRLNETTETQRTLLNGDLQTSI
Where a SMILES comes first, the peptide text is derived from it. Bridges are numbered along the chain shown (N, C = ends). [ ]: non-standard residue; d: D form. The star is where a group is joined. NH(CH2)2SS(DM1) = COc1cc2cc(c1Cl)N(C)C(=O)C[C@H](OC(=O)[C@H](C)N(C)C(=O)CCSSCCN*)[C@]1(C)O[C@H]1[C@H](C)[C@@H]1C[C@@](O)(NC(=O)O1)[C@H](OC)/C=C/C=C(\C)C2; Octanoyl = CCCCCCCC(=O)*
Recorded measurements of Ki, one per entry
Field: value (include unit after the number)

INSERT INTO results (compound, measured_target, recorded_endpoint, endpoint_value) VALUES
  ('COc1cc2cc(c1Cl)N(C)C(=O)C[C@H](OC(=O)[C@H](C)N(C)C(=O)CCSSC(C)(C)[C@H](NC(=O)[C@@H]1CSSC[C@H](NC(=O)[C@@H](Cc3ccccc3)NC(=O)Nc3ccccc3)C(=O)N[C@@H](Cc3ccc(O)cc3)C(=O)N[C@H](Cc3c[nH]c4ccccc34)C(=O)N[C@@H](CCCCN)C(=O)N[C@@H]([C@@H](C)O)C(=O)N1)C(N)=O)[C@]1(C)O[C@H]1[C@H](C)[C@@H]1C[C@@](O)(NC(=O)O1)[C@H](OC)/C=C/C=C(\C)C2 [Conjugate 11]', 'human SSTR2 (Homo sapiens, UniProt P30874)', 'Ki', '0.034 nM'),
  ('COc1cc2cc(c1Cl)N(C)C(=O)C[C@H](OC(=O)[C@H](C)N(C)C(=O)CCSSC(C)(C)[C@H](NC(=O)[C@@H]1CSSC[C@H](NC(=O)[C@@H](Cc3ccccc3)NCc3ccccc3)C(=O)N[C@@H](Cc3ccc(O)cc3)C(=O)N[C@H](Cc3c[nH]c4ccccc34)C(=O)N[C@@H](CCCCN)C(=O)N[C@@H]([C@@H](C)O)C(=O)N1)C(N)=O)[C@]1(C)O[C@H]1[C@H](C)[C@@H]1C[C@@](O)(NC(=O)O1)[C@H](OC)/C=C/C=C(\C)C2 [Conjugate 12]', 'human SSTR2 (Homo sapiens, UniProt P30874)', 'Ki', '0.02 nM');

Ki for COc1cc2cc(c1Cl)N(C)C(=O)C[C@H](OC(=O)[C@H](C)N(C)C(=O)CCSSC(C)(C)[C@H](NC(=O)[C@@H]1CSSC[C@H](NC(=O)[C@H](N)Cc3ccccc3)C(=O)N[C@@H](Cc3ccc(O)cc3)C(=O)N[C@H](Cc3c[nH]c4ccccc34)C(=O)N[C@@H](CCCCNC(=O)NCCCCCCN)C(=O)N[C@@H]([C@@H](C)O)C(=O)N1)C(N)=O)[C@]1(C)O[C@H]1[C@H](C)[C@@H]1C[C@@](O)(NC(=O)O1)[C@H](OC)/C=C/C=C(\C)C2 [Conjugate 57] ? 69 nM

Ki for COc1cc2cc(c1Cl)N(C)C(=O)C[C@H](OC(=O)[C@H](C)N(C)C(=O)CCSSC(C)(C)[C@H](NC(=O)[C@@H]1CSSC[C@H](NC(=O)[C@H](N)Cc3ccccc3)C(=O)N[C@@H](Cc3ccc(O)cc3)C(=O)N[C@H](Cc3c[nH]c4ccccc34)C(=O)N[C@@H](CCCCN)C(=O)N[C@@H]([C@@H](C)O)C(=O)N1)C(N)=O)[C@]1(C)O[C@H]1[C@H](C)[C@@H]1C[C@@](O)(NC(=O)O1)[C@H](OC)/C=C/C=C(\C)C2 [Conjugate 6] ? 0.021 nM

Ki for COc1cc2cc(c1Cl)N(C)C(=O)C[C@H](OC(=O)[C@H](C)N(C)C(=O)CCSSC[C@H](NC(=O)[C@@H]1CSSC[C@H](NC(=O)[C@@H](Cc3ccccc3)NC(=O)Nc3cc(C(F)(F)F)cc(C(F)(F)F)c3)C(=O)N[C@@H](Cc3ccc(O)cc3)C(=O)N[C@H](Cc3c[nH]c4ccccc34)C(=O)N[C@@H](CCCCN)C(=O)N[C@@H]([C@@H](C)O)C(=O)N1)C(N)=O)[C@]1(C)O[C@H]1[C@H](C)[C@@H]1C[C@@](O)(NC(=O)O1)[C@H](OC)/C=C/C=C(\C)C2 [Conjugate 38] ? 5.34 nM

Ki for COc1cc2cc(c1Cl)N(C)C(=O)C[C@H](OC(=O)[C@H](C)N(C)C(=O)CCSC1CC(=O)N(CCCNC(=O)CC[C@H](NC(=O)[C@@H]3CSSC[C@H](NC(=O)[C@H](N)Cc4ccccc4)C(=O)N[C@@H](Cc4ccc(O)cc4)C(=O)N[C@H](Cc4c[nH]c5ccccc45)C(=O)N[C@@H](CCCCN)C(=O)N[C@@H]([C@@H](C)O)C(=O)N3)C(N)=O)C1=O)[C@]1(C)O[C@H]1[C@H](C)[C@@H]1C[C@@](O)(NC(=O)O1)[C@H](OC)/C=C/C=C(\C)C2 (stereo partly drawn) [Conjugate 48] ? 0.21 nM

Ki for CCCCCCCC(=O)N[C@H](Cc1ccccc1)C(=O)N[C@H]1CSSC[C@@H](C(=O)NCCSSCCC(=O)N(C)[C@@H](C)C(=O)O[C@H]2CC(=O)N(C)c3cc(cc(OC)c3Cl)C/C(C)=C/C=C/[C@@H](OC)[C@@]3(O)C[C@H](OC(=O)N3)[C@@H](C)[C@@H]3O[C@@]23C)NC(=O)[C@H]([C@@H](C)O)NC(=O)[C@H](CCCCN)NC(=O)[C@@H](Cc2c[nH]c3ccccc23)NC(=O)[C@H](Cc2ccc(O)cc2)NC1=O [Conjugate 21] (Octanoyl-[dF]CY[dW]KTC-{NH(CH2)2SS(DM1)}; disulfide 2-7) ? 1.29 nM

Ki for COc1cc2cc(c1Cl)N(C)C(=O)C[C@H](OC(=O)[C@H](C)N(C)C(=O)CCSSC[C@H](NC(=O)[C@@H]1CSSC[C@H](NC(=O)[C@@H](Cc3ccccc3)NC(=O)NCCC(c3ccccc3)c3ccccc3)C(=O)N[C@@H](Cc3ccc(O)cc3)C(=O)N[C@H](Cc3c[nH]c4ccccc34)C(=O)N[C@@H](CCCCN)C(=O)N[C@@H]([C@@H](C)O)C(=O)N1)C(N)=O)[C@]1(C)O[C@H]1[C@H](C)[C@@H]1C[C@@](O)(NC(=O)O1)[C@H](OC)/C=C/C=C(\C)C2 [Conjugate 41] ? 0.5 nM

Ki for COc1cc2cc(c1Cl)N(C)C(=O)C[C@H](OC(=O)[C@H](C)N(C)C(=O)CCC(C)(C)SSC[C@H](NC(=O)[C@@H]1CSSC[C@H](NC(=O)[C@@H](Cc3ccccc3)NC(=O)Nc3ccccc3)C(=O)N[C@@H](Cc3ccc(O)cc3)C(=O)N[C@H](Cc3c[nH]c4ccccc34)C(=O)N[C@@H](CCCCN)C(=O)N[C@@H]([C@@H](C)O)C(=O)N1)C(N)=O)[C@]1(C)O[C@H]1[C@H](C)[C@@H]1C[C@@](O)(NC(=O)O1)[C@H](OC)/C=C/C=C(\C)C2 [Conjugate 5] ? 0.32 nM

* * *

experiment: Ligand charge of maytansinoid conjugates; type: physicochemical
Recorded endpoint: Ligand charge

INSERT INTO assay_data (compound, endpoint_value) VALUES
  ('COc1cc2cc(c1Cl)N(C)C(=O)C[C@H](OC(=O)[C@H](C)N(C)C(=O)CCSSC[C@@H](NC(=O)[C@@H]1CSSC[C@H](NC(=O)[C@@H](Cc3ccccc3)NC(C)=O)C(=O)N[C@@H](Cc3ccc(O)cc3)C(=O)N[C@H](Cc3c[nH]c4ccccc34)C(=O)N[C@@H](CCCCN)C(=O)N[C@@H]([C@@H](C)O)C(=O)N1)C(N)=O)[C@]1(C)O[C@H]1[C@H](C)[C@@H]1C[C@@](O)(NC(=O)O1)[C@H](OC)/C=C/C=C(\C)C2 [Conjugate 31]', '+1');

Consider now this further compound.
Ligand charge for COc1cc2cc(c1Cl)N(C)C(=O)C[C@H](OC(=O)[C@H](C)N(C)C(=O)CCSSC[C@H](NC(=O)[C@@H]1CSSC[C@H](NC(=O)[C@@H](Cc3ccccc3)NC(=O)NCCC(c3ccccc3)c3ccccc3)C(=O)N[C@@H](Cc3ccc(O)cc3)C(=O)N[C@H](Cc3c[nH]c4ccccc34)C(=O)N[C@@H](CCCCN)C(=O)N[C@@H]([C@@H](C)O)C(=O)N1)C(N)=O)[C@]1(C)O[C@H]1[C@H](C)[C@@H]1C[C@@](O)(NC(=O)O1)[C@H](OC)/C=C/C=C(\C)C2 [Conjugate 41] ? +1

* * *

Reported values: pKi for human SSTR2 (Homo sapiens, UniProt P30874), one per item.
To interpret pKi, take it as minus log10 of a concentration measured in moles per litre.

Query pKi on human SSTR2 (Homo sapiens, UniProt P30874) for COc1cc2cc(c1Cl)N(C)C(=O)C[C@H](OC(=O)[C@H](C)N(C)C(=O)CCSSC[C@H](NC(=O)[C@@H]1CSSC[C@H](NC(=O)[C@@H](Cc3ccccc3)NC(=O)NC3CCCCC3)C(=O)N[C@@H](Cc3ccc(O)cc3)C(=O)N[C@H](Cc3c[nH]c4ccccc34)C(=O)N[C@@H](CCCCN)C(=O)N[C@@H]([C@@H](C)O)C(=O)N1)C(N)=O)[C@]1(C)O[C@H]1[C@H](C)[C@@H]1C[C@@](O)(NC(=O)O1)[C@H](OC)/C=C/C=C(\C)C2 [Conjugate 25] 9.96

Query pKi on human SSTR2 (Homo sapiens, UniProt P30874) for COc1cc2cc(c1Cl)N(C)C(=O)C[C@H](OC(=O)[C@H](C)N(C)C(=O)CCSSC[C@H](NC(=O)[C@@H]1CSSC[C@H](NC(=O)[C@@H](Cc3ccccc3)NC(=O)NCc3ccccc3)C(=O)N[C@@H](Cc3ccc(O)cc3)C(=O)N[C@H](Cc3c[nH]c4ccccc34)C(=O)N[C@@H](CCCCN)C(=O)N[C@@H]([C@@H](C)O)C(=O)N1)C(N)=O)[C@]1(C)O[C@H]1[C@H](C)[C@@H]1C[C@@](O)(NC(=O)O1)[C@H](OC)/C=C/C=C(\C)C2 [Conjugate 28] 10.24

Query pKi on human SSTR2 (Homo sapiens, UniProt P30874) for COc1cc2cc(c1Cl)N(C)C(=O)C[C@H](OC(=O)[C@H](C)N(C)C(=O)CCSSC[C@H](NC(=O)[C@@H]1CSSC[C@H](NC(=O)[C@@H](Cc3ccccc3)NC(=O)NC3CCCCC3)C(=O)N[C@@H](Cc3ccc(O)cc3)C(=O)N[C@H](Cc3c[nH]c4ccccc34)C(=O)N[C@@H](CCCCN)C(=O)N[C@@H]([C@@H](C)O)C(=O)N1)C(=O)NCc1ccccc1)[C@]1(C)O[C@H]1[C@H](C)[C@@H]1C[C@@](O)(NC(=O)O1)[C@H](OC)/C=C/C=C(\C)C2 [Conjugate 26] 8.85

Query pKi on human SSTR2 (Homo sapiens, UniProt P30874) for COc1cc2cc(c1Cl)N(C)C(=O)C[C@H](OC(=O)[C@H](C)N(C)C(=O)CCSSC[C@H](NC(=O)[C@@H]1CSSC[C@H](NC(=O)[C@@H](Cc3ccccc3)NC(=O)C(F)(F)F)C(=O)N[C@@H](Cc3ccc(O)cc3)C(=O)N[C@H](Cc3c[nH]c4ccccc34)C(=O)N[C@@H](CCCCN)C(=O)N[C@@H]([C@@H](C)O)C(=O)N1)C(N)=O)[C@]1(C)O[C@H]1[C@H](C)[C@@H]1C[C@@](O)(NC(=O)O1)[C@H](OC)/C=C/C=C(\C)C2 [Conjugate 29] 9.64

Query pKi on human SSTR2 (Homo sapiens, UniProt P30874) for COc1cc2cc(c1Cl)N(C)C(=O)C[C@H](OC(=O)[C@H](C)N(C)C(=O)CCSSCCNC(=O)CC[C@H](NC(=O)[C@@H]1CSSC[C@H](NC(=O)[C@H](N)Cc3ccccc3)C(=O)N[C@@H](Cc3ccc(O)cc3)C(=O)N[C@H](Cc3c[nH]c4ccccc34)C(=O)N[C@@H](CCCCN)C(=O)N[C@@H]([C@@H](C)O)C(=O)N1)C(N)=O)[C@]1(C)O[C@H]1[C@H](C)[C@@H]1C[C@@](O)(NC(=O)O1)[C@H](OC)/C=C/C=C(\C)C2 [Conjugate 47] 10.14
